# Target Or System: anti-CD28 scFv (VH - linker 1 - VL) (biotinylated (site not given))
# Sequence (scFv, as listed by the source): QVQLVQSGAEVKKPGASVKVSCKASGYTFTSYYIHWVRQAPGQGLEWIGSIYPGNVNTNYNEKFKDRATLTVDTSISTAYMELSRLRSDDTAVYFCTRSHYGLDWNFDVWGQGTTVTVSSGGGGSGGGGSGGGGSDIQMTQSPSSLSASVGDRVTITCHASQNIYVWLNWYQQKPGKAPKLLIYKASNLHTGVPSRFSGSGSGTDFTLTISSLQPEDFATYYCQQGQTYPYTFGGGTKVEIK
# Assay Name: phage ELISA as before, wells pre-incubated with soluble CD28 (competitor)
Classify by measured CD28 scFv signal in presence of CD28: condition met if it is equal to or exceeds 0.4, condition not met if it is smaller.

MDWCPIDLWHLCFY (tested as crude clonal phage supernatant; not shown: pIII of the bacteriophage to which the peptide is fused) [Phage-90, clonal phage peptide MDWCPIDLWHLCFY] : condition met
MDWCPRFLWDECFN (tested as crude clonal phage supernatant; not shown: pIII of the bacteriophage to which the peptide is fused) [Phage-83, clonal phage peptide …] : condition met

**Q:** Check the entry MDWCPRYLWSDCFA (tested as crude clonal phage supernatant; not shown: pIII of the bacteriophage to which the peptide is fused) [Phage-76, clonal phage peptide MDWCPRYLWSDCFA] : does CD28 scFv signal in presence of CD28 equal or exceed 0.4?
**A:** condition met

**Q:** Check the entry MDWCPKDLWYLCFA (tested as crude clonal phage supernatant; not shown: pIII of the bacteriophage to which the peptide is fused) [Phage-87, clonal phage peptide MDWCPKDLWYLCFA] : does CD28 scFv signal in presence of CD28 equal or exceed 0.4?
**A:** condition not met

**Q:** Check the entry MDWCPRHLWAECFF (tested as crude clonal phage supernatant; not shown: pIII of the bacteriophage to which the peptide is fused) [Phage-86, clonal phage peptide MDWCPRHLWAECFF] : does CD28 scFv signal in presence of CD28 equal or exceed 0.4?
**A:** condition not met

**Q:** Check the entry MDWCPRALWNVCFN (tested as crude clonal phage supernatant; not shown: pIII of the bacteriophage to which the peptide is fused) [Phage-89, clonal phage peptide MDWCPRALWNVCFN] : does CD28 scFv signal in presence of CD28 equal or exceed 0.4?
**A:** condition met

**Q:** Check the entry MDWCPIHLWHYCFN (tested as crude clonal phage supernatant; not shown: pIII of the bacteriophage to which the peptide is fused) [Phage-88, clonal phage peptide MDWCPIHLWHYCFN] : does CD28 scFv signal in presence of CD28 equal or exceed 0.4?
**A:** condition met

These entries and their values trace back to patent US20260242478A1.
